Origin of the recorded values: paper PMC10786891

Examples of binders with documented pKd follow.
Biological target: T1, EsCas13d, nuclease-dead (Eubacterium siraeum, UniProt B0MS50, R295A;H300A;R849A;H854A)
T1 sequence: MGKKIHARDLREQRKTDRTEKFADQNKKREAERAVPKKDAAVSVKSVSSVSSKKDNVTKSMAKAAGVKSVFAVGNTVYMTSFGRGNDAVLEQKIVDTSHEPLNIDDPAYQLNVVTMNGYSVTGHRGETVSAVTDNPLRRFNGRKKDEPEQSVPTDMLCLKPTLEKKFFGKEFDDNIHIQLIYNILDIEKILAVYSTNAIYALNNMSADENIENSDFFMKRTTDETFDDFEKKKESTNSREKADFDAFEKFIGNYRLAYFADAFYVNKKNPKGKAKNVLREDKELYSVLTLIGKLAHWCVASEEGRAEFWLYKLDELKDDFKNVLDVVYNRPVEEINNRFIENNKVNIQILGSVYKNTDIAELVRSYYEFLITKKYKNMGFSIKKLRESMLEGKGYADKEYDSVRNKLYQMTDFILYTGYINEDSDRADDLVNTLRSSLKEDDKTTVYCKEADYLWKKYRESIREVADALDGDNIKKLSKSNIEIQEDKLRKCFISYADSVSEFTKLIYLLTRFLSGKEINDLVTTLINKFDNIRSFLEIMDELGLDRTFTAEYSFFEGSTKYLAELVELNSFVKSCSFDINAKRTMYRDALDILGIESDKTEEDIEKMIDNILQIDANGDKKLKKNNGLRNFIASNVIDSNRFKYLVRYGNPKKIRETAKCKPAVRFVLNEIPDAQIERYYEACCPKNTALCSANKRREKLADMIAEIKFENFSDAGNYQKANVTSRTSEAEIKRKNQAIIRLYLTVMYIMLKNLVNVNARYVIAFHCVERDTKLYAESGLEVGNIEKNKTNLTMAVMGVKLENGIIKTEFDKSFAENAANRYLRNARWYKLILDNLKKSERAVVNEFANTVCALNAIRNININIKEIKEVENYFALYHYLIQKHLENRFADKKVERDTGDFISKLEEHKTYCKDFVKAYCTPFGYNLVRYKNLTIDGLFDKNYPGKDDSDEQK
Experiment: crRNA (strand 1, pre-loaded); Mg2+; 40 mM Tris-HCl pH 7.5, 150 mM NaCl, 6 mM MgCl2, 1 mM DTT, 0.1% Tween-20, 0.2 mg/ml BSA; 25 C; 10 min per concentration, then washed
Conditions: tags: His6-TwinStrep-SUMO cleaved; N-terminal SNAP kept (SNAP-Surface 488); label: 3' end held by stalled T7 RNA polymerase
// pKd here means minus log10 of the molar concentration (mol/L)

Example entries begin here.
• target 1 MT 5'PFS ACA 3'PFS UGA (mixed) RNA 1: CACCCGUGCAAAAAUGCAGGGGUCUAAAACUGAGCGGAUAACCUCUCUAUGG RNA 2: GGGAAUGGAUCCACAUCUACGAAUUCACACCAUAGAGAGGUUAUCCGCUCAUGAAGAUCGGAAGAGCACACGU = 7.81
• target 1 U3A,A16G (mixed) RNA 1: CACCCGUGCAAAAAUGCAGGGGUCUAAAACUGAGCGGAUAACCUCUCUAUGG RNA 2: GGGAAUGGAUCCACAUCUACGAAUUCGUACCAUAGGGAGGUUAUCCGCACACCGAGAUCGGAAGAGCACACGU = 7.46
• target 2 MT 5'PFS AGG 3'PFS AGG (mixed) RNA 1: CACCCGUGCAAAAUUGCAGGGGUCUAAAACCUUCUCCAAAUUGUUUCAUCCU RNA 2: GGGAAUGGAUCCACAUCUACGAAUUCAGGAGGAUGAAACAAUUUGGAGAAGAGGAGAUCGGAAGAGCACACGU = 8.28

For target 2 MT 5'PFS GCA 3'PFS AAU (mixed) RNA 1: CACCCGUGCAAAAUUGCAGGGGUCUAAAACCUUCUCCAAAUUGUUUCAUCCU RNA 2: GGGAAUGGAUCCACAUCUACGAAUUCGCAAGGAUGAAACAAUUUGGAGAAGAAUAGAUCGGAAGAGCACACGU , what is its reported pKd?
8.00

For target 1 insA 3' of 21,insA 3' of 15 (mixed) RNA 1: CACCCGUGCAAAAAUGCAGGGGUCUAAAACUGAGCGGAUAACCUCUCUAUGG RNA 2: GGGAAUGGAUCCACAUCUACGAAUUCGUACCAAUAGAGAAGGUUAUCCGCUCACCGAGAUCGGAAGAGCACACGU , what is its reported pKd?
8.03

For target 1 insU 3' of 18,insA 3' of 7 (mixed) RNA 1: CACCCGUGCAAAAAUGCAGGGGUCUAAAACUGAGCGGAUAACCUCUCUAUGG RNA 2: GGGAAUGGAUCCACAUCUACGAAUUCGUACCAUAUGAGAGGUUAUCACGCUCACCGAGAUCGGAAGAGCACACGU , what is its reported pKd?
7.63

For target 1 U8A,A18G (mixed) RNA 1: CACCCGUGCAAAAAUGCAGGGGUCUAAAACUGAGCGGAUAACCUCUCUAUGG RNA 2: GGGAAUGGAUCCACAUCUACGAAUUCGUACCAUGGAGAGGUUAACCGCUCACCGAGAUCGGAAGAGCACACGU , what is its reported pKd?
7.14
